- Organism: Rattus norvegicus
- Method summary: DrugMatrix - Regimen: Daily Repeat
- Format: toxicity, organism-based, Sprague-Dawley
- Parameters: regimen Daily Repeat, gender Male, age 6-8 weeks
- Condition info: in vivo, ip, 5 mg/kg, […], tissue Blood, route intraperitoneal, dose level High, time 28 day, vehicle 100 % SALINE
Attribute measured: ABSOLUTE BASOPHIL (cells/µL)
Give bare numbers, in cells/µL.

Input line: // fetch ABSOLUTE BASOPHIL given entry CARBOPLATIN
Output line: 170

----------
- Species: Rattus norvegicus
- Method summary: DrugMatrix - Regimen: Daily Repeat
- Type: toxicity, organism-based, Sprague-Dawley
- Parameters: regimen Daily Repeat, gender Male, age 6-8 weeks
- Condition info: in vivo, po, 0 mg/kg, 72 h, tissue Plasma, route oral GAVAGE, dose level Control, time 3 day, […]
Attribute measured: LACTATE DEHYDROGENASE (u/L)
One number for each entry, in u/L.

Solved entries:
Molecule | LACTATE DEHYDROGENASE [u/L]
CCCCCCCCCc1ccc(O)cc1 | 198.5
c1ccc2[nH]c(-c3cscn3)nc2c1 | 101.83
CC(C)(Oc1ccc(CCNC(=O)c2ccc(Cl)cc2)cc1)C(=O)O [BEZAFIBRATE] | 75.83
COc1ccc2c(c1)c(CC(=O)OCC(=O)O)c(C)n2C(=O)c1ccc(Cl)cc1 | 501.5
CC1=C(/C=C/C(C)=C/C=C/C(C)=C\C(=O)O)C(C)(C)CCC1 | 130.33

State recorded LACTATE DEHYDROGENASE for all listed molecules.
1. COC1=CC(=O)C[C@@H](C)[C@]12Oc1c(Cl)c(OC)cc(OC)c1C2=O
2. CC(=O)[C@H]1CC[C@H]2[C@@H]3CCC4=CC(=O)CC[C@]4(C)[C@H]3CC[C@]12C
3. CSc1ccc2c(c1)N(CCC1CCCCN1C)c1ccccc1S2 (centres undefined)
4. CC(C)n1c(/C=C/C(O)CC(O)CC(=O)O)c(-c2ccc(F)cc2)c2ccccc21 (centres undefined)

Output line:
484.67
119.5
112.33
94.5

----------
- Species: Rattus norvegicus
- Method summary: DrugMatrix - Regimen: Daily Repeat
- Assay type: toxicity, organism-based, Sprague-Dawley
- Design: regimen Daily Repeat, gender Male, age 6-8 weeks
- Condition info: in vivo, po, 0 mg/kg, 120 h, tissue Blood, route oral GAVAGE, dose level Control, time 5 day, […]
For each of the molecules below, state its BASOPHIL.
One number for each entry, in %.

Some entries whose results are on file:
Molecule | BASOPHIL [%]
O=[N+]([O-])c1cc([As](=O)(O)O)ccc1O [ROXARSONE] | 0.32
COC1=CC(=O)C[C@@H](C)[C@]12Oc1c(Cl)c(OC)cc(OC)c1C2=O [GRISEOFULVIN] | 0
c1ccc2[nH]c(-c3cscn3)nc2c1 [THIABENDAZOLE] | 0
C=CCN [ALLYLAMINE] | 0.3
CN(C)CCCC1(c2ccc(F)cc2)OCc2cc(C#N)ccc21 (stereo not drawn) [CITALOPRAM] | 0

Take each entry in turn and give its BASOPHIL.
1. CC(C)(Oc1ccc(CCNC(=O)c2ccc(Cl)cc2)cc1)C(=O)O [BEZAFIBRATE]
2. Clc1ccccc1C(c1ccccc1)(c1ccccc1)n1ccnc1 [CLOTRIMAZOLE]
3. CSc1ccc2c(c1)N(CCC1CCCCN1C)c1ccccc1S2 (stereo not drawn) [THIORIDAZINE]

Output line:
0.32
0
0
